settings: buffer; pH 7.4; 200.0 µM
MEASURE_NAME: solubility kinetic

INSERT INTO results (compound, endpoint_result) VALUES
  ('O=C(NCCNc1ccc(Cl)cc1[N+](=O)[O-])c1ccccc1F', '1.5 µg/mL'),
  ('O=C(COc1ccc(Cl)cc1)OCC(=O)N1CCOCC1', '> 47.1 µg/mL'),
  ('OC1(Cc2ccccc2)CCNCC1', '> 28.7 µg/mL'),
  ('O=C(NC1CC(=O)c2sccc21)c1ccc(Cl)cc1Cl (centres undefined)', '> 48.9 µg/mL'),
  ('COc1ccc(S(=O)(=O)NCC2CCCO2)cc1C(=O)O (centres undefined)', '> 47.3 µg/mL'),
  ('COc1cccc(NC(=O)Nc2cccc(C)n2)c1', '0.3 µg/mL'),
  ('Cl.O=C(NCCCn1ccnc1)c1ccccc1F', '> 42.6 µg/mL'),
  ('N/C(=N\OC(=O)c1ccc(F)cc1)c1ccc(Br)cc1', '0.4 µg/mL'),
  ('Cc1nc([N+](=O)[O-])c(C(=O)OCc2ccccc2C#N)n1C', '> 45 µg/mL'),
  ('Br.COc1ccc(C(=O)CN2Cc3ccccc3C2=N)cc1', '> 54.2 µg/mL'),
  ('O=C(CCc1ccc(S(=O)(=O)N2CCOCC2)cc1)Nc1ccc(F)c(F)c1F', '44.6 µg/mL'),
  ('COC(=O)c1ccc(C(=O)OC)c(NC(=S)N2CCN(C)CC2)c1', '> 52.7 µg/mL'),
  ('COc1ccc(CNC(=O)CCC(=O)c2ccc(F)cc2)cc1OC', '> 51.8 µg/mL'),
  ('CCOc1ccc(Oc2ccccc2NC(=O)CCNC(C)=O)cc1', '> 51.4 µg/mL'),
  ('CCOC(=O)C1CCN(C(=O)COC(=O)/C=C/c2ccccc2)CC1', '> 51.8 µg/mL'),
  ('CC(C)(C)c1ccc(-c2nc(C#N)c(NCCCn3ccnc3)o2)cc1', '1.2 µg/mL'),
  ('CCOC(=O)C1CCN(C(=O)/C(=C/c2ccccc2)NC(=O)c2ccccc2)CC1', '> 61 µg/mL'),
  ('CSc1ccc(S(=O)(=O)N2CCC(C(=O)NC3CC3)CC2)cc1', '36 µg/mL'),
  ('Cc1cccc(NC(=O)NC2(C)CCS(=O)(=O)C2)c1 (centres undefined)', '> 42.4 µg/mL'),
  ('N#CCSc1nc2ccccc2c(=O)n1CC1CCCC1', '0.8 µg/mL'),
  ('COc1nccnc1NS(=O)(=O)c1ccc(N)cc1', '> 42 µg/mL'),
  ('Cn1cnc([N+](=O)[O-])c1NCc1ccccc1', '33.5 µg/mL'),
  ('CCOc1ccc(S(=O)(=O)N2CCN(C(=O)c3ccco3)CC2)cc1', '> 54.7 µg/mL'),
  ('CC(C)(c1ccccc1)c1ccc(OCCN2CCCC2)cc1', '29.2 µg/mL');

====

details: buffer; pH 7.4; 200.0 µM
Listed molecules paired with reported solubility kinetic
MEASURE_NAME: solubility kinetic

INSERT INTO measurements (molecule, endpoint_result) VALUES
  ('CCN(CC)c1c([N+](=O)[O-])c(=O)n(CC)c2ccccc12', '32.4 µg/mL'),
  ('Cc1c(Cl)cccc1NC(=O)CSc1nccn1C', '> 44.4 µg/mL'),
  ('CCN(Cc1nc(-c2cccc(C)c2)no1)C(=O)c1ccco1', '44.4 µg/mL'),
  ('O=C(CCCCl)N1CCc2[nH]c3ccccc3c2C1', '> 41.5 µg/mL'),
  ('O=C(CCS(=O)(=O)c1ccccc1)OCc1ccc([N+](=O)[O-])cc1', '32 µg/mL'),
  ('COc1cccc(NC(=O)c2ccccc2NC(=O)c2ccncc2)c1', '29.1 µg/mL'),
  ('COc1ccc(C2CC(C)=C(C#N)S(=O)(=O)C2C#N)cc1 (configuration not stated)', '> 45.4 µg/mL'),
  ('Cc1ccc(NS(=O)(=O)c2ccc(Cl)s2)nc1', '33.6 µg/mL'),
  ('O=C(c1cccs1)N1CCN(c2ccccc2)CC1', '> 40.9 µg/mL'),
  ('COC(=O)CNC(=O)c1cc(-c2ccncc2)nc2ccc(C)cc12', '> 50.3 µg/mL'),
  ('CCOC(=O)CSc1nc(COc2ccccc2)nc2ccccc12', '0.6 µg/mL'),
  ('CC(C)c1ccc(CNc2ncc(Br)cn2)cc1', '0.4 µg/mL');
